Cited source for all entries: ChEMBL document CHEMBL1201862

Measured GI50 accompanies every entry in the list below.
System: KM-20L2
Experiment: NCI tumour cell line growth inhibition, 48 h
Active and inactive are the calls of the source. Cut-off read from the data, not from the text of the source: active = GI50 up to about 1.1 µM and inactive = higher.

The following compounds have reported results that may help.
[
  {
    "Compound": "COc1cccc2c1OC1Sc3ccccc3-c3nn(-c4ccccc4)c-2c31 (stereo unspecified)",
    "GI50": "> 100 µM (inactive)"
  },
  {
    "Compound": "NC(=O)NNC/C(Cl)=C(\\Cl)C(=O)O",
    "GI50": "> 100 µM (inactive)"
  },
  {
    "Compound": "COC(=O)c1ccc(CS(=O)(=O)c2ccccc2)cc1",
    "GI50": "61.5 µM (inactive)"
  },
  {
    "Compound": "CCCCCCCCC(O)c1ccc(/C=C\\C(O)CCCC(=O)O)s1 (stereo unspecified)",
    "GI50": "> 100 µM (inactive)"
  },
  {
    "Compound": "CN(C(=N)c1ccccc1)c1ccccc1",
    "GI50": "> 100 µM (inactive)"
  }
]

The record that follows has no GI50 shown yet.
Please give the measured GI50 for this compound: O=NN1CCN=C1c1ccc([N+](=O)[O-])cc1 > 100 µM (inactive)

----------
Test system: MOLT-4
Experiment: NCI tumour cell line growth inhibition, 48 h
Active and inactive are the calls of the source. Cut-off read from the data, not from the text of the source: active = GI50 up to about 1.1 µM and inactive = higher.
Measured GI50 accompanies every entry in the list below.

Requested read-out GI50, target or system MOLT-4, entry CCCCCCCCC(O)c1ccc(/C=C\C(O)CCCC(=O)O)s1 (stereo unspecified) > 100 µM (inactive)

Requested read-out GI50, target or system MOLT-4, entry COC(=O)N/N=C(/CC1(O)C(=O)Nc2ccc([N+](=O)[O-])cc21)c1ccccc1 (stereo unspecified) 24.5 µM (inactive)

----------
Tested on: MDA-MB-231
Assay: NCI tumour cell line growth inhibition, 48 h
The source made the active and inactive calls. Rule as the data show it: active = GI50 up to about 1.1 µM and inactive = higher. Where a SMILES comes first, the peptide text is derived from it.
Pick one and only one: active, inactive

Worked set:
[
  {
    "Molecule": "COc1ccc([C@H]2C=C(c3cc(F)c(Cl)cc3Cl)NC(=S)N2)cc1",
    "Measured Target": "MDA-MB-231",
    "Assigned Class": "inactive"
  },
  {
    "Molecule": "O=[N+]([O-])c1cccc2nc3ccccc3c(NCCNCCO)c12",
    "Measured Target": "MDA-MB-231",
    "Assigned Class": "active"
  },
  {
    "Molecule": "CC1(C)C2CCC(=O)C1CC2 (stereo not given)",
    "Measured Target": "MDA-MB-231",
    "Assigned Class": "inactive"
  },
  {
    "Molecule": "CN1CC[C@]2(c3cccc(O)c3)CC(=O)/C(=C/c3ccc(Cl)c(Cl)c3)[C@@H]1C2",
    "Measured Target": "MDA-MB-231",
    "Assigned Class": "inactive"
  },
  {
    "Molecule": "O=C1Oc2ccccc2C(=O)/C1=C\\Nc1nc(-c2ccccc2)cs1",
    "Measured Target": "MDA-MB-231",
    "Assigned Class": "inactive"
  },
  {
    "Molecule": "C(=N\\N=C1NCCCN1)/c1ccc2ccccc2c1",
    "Measured Target": "MDA-MB-231",
    "Assigned Class": "inactive"
  },
  {
    "Molecule": "NC(=S)N/N=C1\\CCCC1C(O)(C(F)(F)Cl)C(F)(F)Cl (stereo not given)",
    "Measured Target": "MDA-MB-231",
    "Assigned Class": "inactive"
  },
  {
    "Molecule": "CNC(=O)CNC(=O)C(NC(=O)CNC(=O)C1CCCN1C(=O)C(C)NC(=O)C(NC(C)=O)C(C)C)C(C)C (stereo not given) (Ac-VAPGVG-NHMe; configuration not given here)",
    "Measured Target": "MDA-MB-231",
    "Assigned Class": "inactive"
  }
]

Please state the recorded outcome for this molecule: CCc1c(N=[N+]=[N-])c2ccccc2oc1=O inactive

Please state the recorded outcome for this molecule: C=C(C)C(=O)[C@@]12C(=O)[C@@H](C)CC[C@H]1[C@H](C)C[C@@H]2C=C(C)C inactive

----------
Measured GI50 accompanies every entry in the list below.
Tested on: MDA-MB-435
Experiment: NCI tumour cell line growth inhibition, 48 h
Activity calls are given as the source filed them. Cut-off read from the data, not from the text of the source: active = GI50 up to about 1.1 µM and inactive = higher.

The following molecules have reported results that may help.
[
  {
    "Molecule": "NC1=NCC(CN2CCOCC2)O1 (stereo unspecified)",
    "Property Measured": "GI50",
    "Result": "> 100 µM (inactive)"
  },
  {
    "Molecule": "CC12CP(=O)(c3ccccc3)CC1c1ccccc1C2c1ccccc1 (stereo unspecified)",
    "Property Measured": "GI50",
    "Result": "15.2 µM (inactive)"
  },
  {
    "Molecule": "CC(C)(C)[Si](C)(C)OCC1OC(n2cnc3c(NC(=O)c4ccccc4)ncnc32)CC1O (stereo unspecified)",
    "Property Measured": "GI50",
    "Result": "22.1 µM (inactive)"
  }
]

Please give the measured GI50 for this molecule: COC(=O)Nc1nc2cc(S(=O)(=O)N3CCOCC3)ccc2[nH]1 26.4 µM (inactive)

Please give the measured GI50 for this molecule: C=C(C)C(=O)[C@@]12C(=O)[C@@H](C)CC[C@H]1[C@H](C)C[C@@H]2C=C(C)C 20.3 µM (inactive)

Please give the measured GI50 for this molecule: Cc1cc(C)nc(NS(=O)(=O)c2ccc(Nc3c4ccccc4nc4c(C(=O)NCCO)cccc34)cc2)n1 16.6 µM (inactive)

Please give the measured GI50 for this molecule: OC(c1cc(C(F)(F)F)nc2c(Cl)cc(Cl)cc12)C1CCCCN1 (stereo unspecified) 5.61 µM (inactive)

Please give the measured GI50 for this molecule: O=C(/C=C/C=C/c1ccccc1)CCc1ccccc1 72.6 µM (inactive)

Please give the measured GI50 for this molecule: CN(C(=O)Cc1ccc(Cl)c(Cl)c1)[C@@H]1CCCC[C@H]1[N+]1(C)CC=CC1 > 100 µM (inactive)

Please give the measured GI50 for this molecule: C=C1CCC[C@@H](C)C(O)[C@@H]2OC(=O)C(=C)[C@@H]2C[C@@H](OC(C)=O)[C@@]2(C)CC[C@@H]1O2 (stereo partly specified) 7.71 µM (inactive)

Please give the measured GI50 for this molecule: CSC1=N/C(=C\c2ccco2)C(=O)N1CN1CCCCC1 > 100 µM (inactive)

Please give the measured GI50 for this molecule: COc1c2cc([N+](=O)[O-])cc1CN(C(=O)C(F)(F)F)CCOCCN(C(=O)C(F)(F)F)C2 > 100 µM (inactive)

----------
Measured GI50 accompanies every entry in the list below.
Tested on: A549
Assay: NCI tumour cell line growth inhibition, 48 h
Activity calls are given as the source filed them. Cut-off read from the data, not from the text of the source: active = GI50 up to about 1.1 µM and inactive = higher.

The following compounds have reported results that may help.
[
  {
    "Compound": "CC1(C)[C@@H]2CC[C@]1(C)[C@H](OC(=O)/C=C/c1ccccc1)C2",
    "Measured Target": "A549",
    "Result": "30.8 µM (inactive)"
  },
  {
    "Compound": "C=C(C)C(=O)[C@@]12C(=O)[C@@H](C)CC[C@H]1[C@H](C)C[C@@H]2C=C(C)C",
    "Measured Target": "A549",
    "Result": "32.7 µM (inactive)"
  },
  {
    "Compound": "CCOC(=O)c1nc2cc(C(F)(F)F)ccc2nc1Nc1ccc(Cl)c(Cl)c1",
    "Measured Target": "A549",
    "Result": "84.3 µM (inactive)"
  },
  {
    "Compound": "CC1OC(n2cc(I)c(=O)[nH]c2=O)C=CC1=O (centres undefined)",
    "Measured Target": "A549",
    "Result": "26.7 µM (inactive)"
  },
  {
    "Compound": "COC(=O)C1=CC2OC13CC1CCC3(C2=O)C1(C)C (centres undefined)",
    "Measured Target": "A549",
    "Result": "31.4 µM (inactive)"
  }
]

Requested read-out GI50, target or system A549, entry COc1ccc(/C=C(/c2ccc(OC)cc2)c2c(Cl)cc(Cl)c(/C(=C\c3ccc(OC)cc3)c3ccc(OC)cc3)c2/N=N/c2ccccc2)cc1 > 100 µM (inactive)

Requested read-out GI50, target or system A549, entry N#C/C(N)=N/c1ccccc1 > 100 µM (inactive)

Requested read-out GI50, target or system A549, entry CCOC(=O)C1(c2ccccc2)CCC(=O)CC1 > 100 µM (inactive)

Requested read-out GI50, target or system A549, entry Nc1ccc(C(=O)N/C(=C\c2cccc([N+](=O)[O-])c2)c2nc3ccccc3[nH]2)cc1 51.3 µM (inactive)

----------
Measured GI50 accompanies every entry in the list below.
Tested on: HCT-116
Experiment: NCI tumour cell line growth inhibition, 48 h
Activity calls are given as the source filed them. Cut-off read from the data, not from the text of the source: active = GI50 up to about 1.1 µM and inactive = higher.

The following compounds have reported results that may help.
[
  {
    "Compound": "CSc1ncnc2c1cnn2CCCCO",
    "Property Measured": "GI50",
    "Result": "> 100 µM (inactive)"
  },
  {
    "Compound": "COC(=O)N/N=C(/CC1(O)C(=O)Nc2ccc([N+](=O)[O-])cc21)c1ccccc1 (stereo unspecified)",
    "Property Measured": "GI50",
    "Result": "24.1 µM (inactive)"
  },
  {
    "Compound": "CCOC(=O)CCSS(=O)(=O)C(F)(F)F",
    "Property Measured": "GI50",
    "Result": "> 100 µM (inactive)"
  },
  {
    "Compound": "C=C=C[P+](c1ccccc1)(c1ccccc1)c1ccccc1",
    "Property Measured": "GI50",
    "Result": "3.37 µM (inactive)"
  },
  {
    "Compound": "CC(C)C(N)=O [ISOBUTYRAMIDE]",
    "Property Measured": "GI50",
    "Result": "> 5000 µM (inactive)"
  },
  {
    "Compound": "Oc1ccc(CCNCc2cc3c(cc2Br)OCO3)cc1",
    "Property Measured": "GI50",
    "Result": "61.7 µM (inactive)"
  }
]

Requested read-out GI50, target or system HCT-116, entry C#C[C@]1(O)CC[C@H]2[C@@H]3CCC4=C/C(=N/NC(=O)c5cccc6c(=O)c7ccccc7[nH]c56)CCC4[C@H]3CC[C@@]21C (stereo partly specified) 53 µM (inactive)

Requested read-out GI50, target or system HCT-116, entry CC(=O)Nc1ccc2cc(C#N)c(=O)[nH]c2n1 > 100 µM (inactive)

Requested read-out GI50, target or system HCT-116, entry C/C(=N\Nc1nc2ccccc2[nH]1)c1cccc[n+]1[O-] 88.3 µM (inactive)

Requested read-out GI50, target or system HCT-116, entry O=C(O)CCC(C(=O)O)N1C(=O)C2C3CCC(C3)C2C1=O (stereo unspecified) > 100 µM (inactive)

Requested read-out GI50, target or system HCT-116, entry COc1ccc2c(CN3CCCCC3CO)cc3cc(OC)c(OC)cc3c2c1 (stereo unspecified) 1.75 µM (inactive)
